Target: D(1A) dopamine receptor (Homo sapiens)
Sequence (P21728 whole entry): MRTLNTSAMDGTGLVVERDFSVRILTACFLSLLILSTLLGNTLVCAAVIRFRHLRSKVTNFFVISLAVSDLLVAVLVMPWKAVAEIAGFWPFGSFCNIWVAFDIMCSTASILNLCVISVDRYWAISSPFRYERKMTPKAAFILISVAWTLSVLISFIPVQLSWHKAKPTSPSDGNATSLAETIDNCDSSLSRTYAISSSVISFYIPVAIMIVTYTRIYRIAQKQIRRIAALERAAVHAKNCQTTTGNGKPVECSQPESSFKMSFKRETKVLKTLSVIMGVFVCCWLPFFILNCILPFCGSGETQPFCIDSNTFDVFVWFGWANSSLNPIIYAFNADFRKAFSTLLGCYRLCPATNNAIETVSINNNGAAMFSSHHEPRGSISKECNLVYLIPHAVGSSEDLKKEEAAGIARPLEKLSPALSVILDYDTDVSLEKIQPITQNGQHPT
Test: Antagonist activity at Dopamine D1 receptor (unknown origin)
readoutType: EC50

O=C(O)c1ccc(CN2CCC(CN[C@@H]3C[C@H]3c3ccccc3)CC2)cc1 [GSK2879552] :: > 32 µM

Given the entry c1ccc([C@@H]2C[C@H]2NC2CCNCC2)cc1 , report its measured EC50.
> 100 µM

====

Target: Vasopressin V1a receptor (Homo sapiens, UniProt P37288)
Sequence (P37288 whole entry): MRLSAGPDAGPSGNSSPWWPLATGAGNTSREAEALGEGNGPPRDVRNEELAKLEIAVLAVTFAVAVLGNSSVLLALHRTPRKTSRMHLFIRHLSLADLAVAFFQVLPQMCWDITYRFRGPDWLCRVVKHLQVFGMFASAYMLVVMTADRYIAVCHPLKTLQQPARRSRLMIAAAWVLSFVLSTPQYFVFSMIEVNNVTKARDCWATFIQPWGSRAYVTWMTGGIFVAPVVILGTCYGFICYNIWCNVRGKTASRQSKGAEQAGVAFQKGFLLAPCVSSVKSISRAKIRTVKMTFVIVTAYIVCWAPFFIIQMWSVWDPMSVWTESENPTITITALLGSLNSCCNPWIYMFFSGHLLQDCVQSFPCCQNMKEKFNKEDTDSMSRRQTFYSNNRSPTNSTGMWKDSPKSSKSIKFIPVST
Assay: Antagonist activity at V1a receptor (unknown origin)
Type: functional
pEC50: −log10 of the molar value.
Please provide measured pEC50 for the entries that follow.

c1ccc([C@@H]2C[C@H]2NC2CCNCC2)cc1 :: < 4.52

Alright, here's another compound for you.
Any idea what its pEC50 is? The compound is O=C(O)c1ccc(CN2CCC(CN[C@@H]3C[C@H]3c3ccccc3)CC2)cc1
< 4.52
